Dear all, I have gathered published pIC50 values for Tyrosine-protein kinase JAK2 (Homo sapiens, UniProt O60674); the list follows.
// pIC50 here means minus log10 of the molar concentration (mol/L)

Sample records with pIC50:
>>> df
                                   compound  measuredattribute  observedvalue
0  Cc1cnc(Nc2ccc(N3CCOCC3)cc2)nc1-c1cc2cc(C#N)ccc2o1              pIC50           7.98
1   NC(=O)c1cnc(Nc2ccc(O)cn2)cc1Nc1ccccc1Cl              pIC50           7.70

Field: pIC50 (Tyrosine-protein kinase JAK2 (Homo sapiens, UniProt O60674)). Entry: `N#C/C=C/c1ccc(-c2nc3cnc4[nH]ccc4c3n2C2CCCCC2)o1`
7.28

# repeat for `Cc1cc(-c2ccnc(Nc3ccc(N4CCOCC4)cc3)n2)ccc1C(=O)NCC#N`
7.19

Next compound: `CC(C)S(=O)(=O)N1CC[C@@H](N(C)c2ncnc3[nH]ccc23)C1`
5.32
